- System tested: Rap guanine nucleotide exchange factor 3 (Homo sapiens)
- Sequence (O95398 whole entry): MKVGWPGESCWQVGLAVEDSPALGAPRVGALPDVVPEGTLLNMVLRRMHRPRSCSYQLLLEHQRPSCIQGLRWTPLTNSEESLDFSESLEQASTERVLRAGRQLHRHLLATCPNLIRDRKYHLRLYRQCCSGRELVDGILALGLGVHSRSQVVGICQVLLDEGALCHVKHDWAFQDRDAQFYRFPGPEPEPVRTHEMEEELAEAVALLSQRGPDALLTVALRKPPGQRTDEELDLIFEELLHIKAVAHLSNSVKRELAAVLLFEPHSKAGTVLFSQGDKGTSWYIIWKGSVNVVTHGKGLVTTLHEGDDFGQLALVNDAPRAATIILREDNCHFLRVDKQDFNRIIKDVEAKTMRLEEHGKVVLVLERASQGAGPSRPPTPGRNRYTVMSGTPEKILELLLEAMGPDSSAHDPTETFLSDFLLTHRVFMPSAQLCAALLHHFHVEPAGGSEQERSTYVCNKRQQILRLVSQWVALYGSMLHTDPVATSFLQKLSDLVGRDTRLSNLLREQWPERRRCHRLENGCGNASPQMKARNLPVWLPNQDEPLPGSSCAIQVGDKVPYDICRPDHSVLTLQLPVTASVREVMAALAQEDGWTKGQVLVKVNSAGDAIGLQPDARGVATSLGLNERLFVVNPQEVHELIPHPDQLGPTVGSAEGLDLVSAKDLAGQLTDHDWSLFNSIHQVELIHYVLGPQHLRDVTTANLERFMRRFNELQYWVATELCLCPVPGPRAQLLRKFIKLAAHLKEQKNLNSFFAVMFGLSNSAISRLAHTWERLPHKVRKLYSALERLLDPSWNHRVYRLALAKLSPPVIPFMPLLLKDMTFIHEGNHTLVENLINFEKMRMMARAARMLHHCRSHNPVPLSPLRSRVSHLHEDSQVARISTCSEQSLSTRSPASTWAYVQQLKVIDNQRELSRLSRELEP
- Test protocol: Antagonist activity at human recombinant EPAC1 assessed as inhibition of Rap1b-bGDP exchange activity
Property: pIC50
Answers are plain numbers, as −log10 of the molar value.

CC(C)(C)c1cc(C(=O)/C(C#N)=N/Nc2cc(F)cc(Cl)c2)no1 :: 4.94
CC(C)(C)c1cc(C(=O)/C(C#N)=N/Nc2cc(Cl)cc(C(F)(F)F)c2)no1 :: 5.24

For each listed entry, give its pIC50.
1. CC(C)(C)c1cc(C(=O)/C(C#N)=N/Nc2ccc(Cl)c(C(F)(F)F)c2)no1
2. N#C/C(=N\Nc1cc(Cl)cc(Cl)c1)C(=O)c1cc(C2CCCCC2)on1

Key:
1: 5.01; 2: 5.59

For each listed entry, give its pIC50.
1. CC(C)(C)c1cc(C(=O)/C(C#N)=N/Nc2ccc(F)c(Cl)c2)no1
2. CC(C)(C)c1cc(C(=O)/C(C#N)=N/Nc2cc(C(F)(F)F)cc(C(F)(F)F)c2)no1
3. CC(C)(C)c1cc(C(=O)/C(C#N)=N/Nc2ccc(C(F)(F)F)c(Cl)c2)no1
4. CC(C)(C)c1cc(C(=O)/C(C#N)=N/Nc2cc(Cl)c(Cl)c(Cl)c2)no1
5. N#C/C(=N\Nc1cc(Cl)c(Cl)c(Cl)c1)C(=O)c1cc(C2CCCCC2)on1
6. CC(C)(C)c1cc(C(=O)/C(C#N)=N/Nc2cccc(Cl)c2)no1
7. N#C/C(=N\Nc1cc(Cl)c(Cl)c(Cl)c1)C(=O)c1cc(C2CC2)on1

Key:
[5.11, 5.24, 5.37, 5.62, 5.40, 4.97, 5.39]

Exercise: For the record CC(C)(C)c1cc(C(=O)/C(C#N)=N/Nc2cc(F)c(F)c(F)c2)no1 , what value of pIC50 is listed for Rap guanine nucleotide exchange factor 3 (Homo sapiens)?
Key: 5.05
